Tested on: Staphylococcus epidermidis
ASSAY REMARKS: Antibacterial activity against Staphylococcus epidermidis ATCC 35547 assessed as effect on planktonic growth at 2.73 ug/ml after 20 hrs relative to control
Assay type: functional
MEASURED METRIC: Activity

Study these solved cases before continuing.
MOLECULE | Activity
COc1ccc(C)cc1C1=C(Br)C(=O)N(CC(C)C)/C1=C\c1ccccc1Cl | -5.5%
COc1ccc(Cl)cc1C1=C(Br)C(=O)N(CC(C)C)C1(O)Cc1ccccc1Br (stereo not drawn) | 21.5%
COc1ccc(Cl)cc1C1=C(Br)C(=O)N(CC(C)C)/C1=C/c1ccccc1Br | -3.7%
COc1cccc(/C=C2\C(c3cc(Cl)ccc3OC)=C(Br)C(=O)N2CC(C)C)c1 | 1.5%

Ask: Please look up its Activity: COc1cccc(CC2(O)C(c3cc(Cl)ccc3OC)=C(Br)C(=O)N2CC(C)C)c1 (stereo not drawn)
Result: 3.4%

Ask: Please look up its Activity: COc1ccc(Br)cc1C1=C(Br)C(=O)N(CC(C)C)/C1=C/c1ccc(Br)cc1
Result: -5.7%

Ask: Please look up its Activity: COc1ccc(Br)cc1C1=C(Br)C(=O)N(CC(C)C)/C1=C\c1cccc(Cl)c1
Result: 6.8%

Ask: Please look up its Activity: COc1ccccc1C1=C(Br)C(=O)N(CC(C)C)/C1=C\c1ccc(C(F)(F)F)cc1
Result: -21.2%

###

# Activity listing for each entry below
Tested on: Pseudomonas aeruginosa
ASSAY REMARKS: Antibacterial activity against Pseudomonas aeruginosa ATCC 27853 assessed as effect on planktonic growth at 0.17 ug/ml after 20 hrs relative to control
Format: functional
Dear colleague, please return just the value in %, with no unit written.

Ask: Given the entry COc1ccc(C)cc1C1=C(Br)C(=O)N(CC(C)C)/C1=C/c1cccc(Cl)c1 , what Activity was observed with Pseudomonas aeruginosa?
Result: -2.3

Ask: Given the entry COc1ccc(C)cc1C1=C(Br)C(=O)N(CC(C)C)/C1=C\c1cccc(Cl)c1 , what Activity was observed with Pseudomonas aeruginosa?
Result: 0.9

Ask: Given the entry COc1ccc(Cl)cc1C1=C(Br)C(=O)N(CC(C)C)/C1=C\c1ccccc1Br , what Activity was observed with Pseudomonas aeruginosa?
Result: -2.5

###

Tested on: Staphylococcus epidermidis
ASSAY REMARKS: Antibacterial activity against Staphylococcus epidermidis ATCC 35547 assessed as effect on planktonic growth at 21.9 ug/ml after 20 hrs relative to control
Format: functional
MEASURED METRIC: Activity
Reply with the number, then its unit.

COMPOUND | OBSERVED
COc1ccc(C)cc1C1=C(Br)C(=O)N(CC(C)C)/C1=C/c1cccc(Cl)c1 | 16.6%
COc1cccc(CC2(O)C(c3cc(Cl)ccc3OC)=C(Br)C(=O)N2CC(C)C)c1 (stereo not drawn) | 6.9%
COc1ccc(Br)cc1C1=C(Br)C(=O)O/C1=C\c1cccc(Cl)c1 | 8.8%
COc1cccc(/C=C2/C(c3cc(Cl)ccc3OC)=C(Br)C(=O)N2CC(C)C)c1 | 11.3%
COc1ccc(Br)cc1C1=C(Br)C(=O)N(CC(C)C)/C1=C/c1cccc(Cl)c1 | 27.7%
COc1ccc(C)cc1C1=C(Br)C(=O)N(CC(C)C)C1(O)Cc1ccccc1Cl (stereo not drawn) | 34.6%

Ask: Given the entry COc1ccc(C)cc1C1=C(Br)C(=O)O/C1=C\c1ccccc1Cl , what Activity was observed with Staphylococcus epidermidis?
Result: 15.8%

Ask: Given the entry COc1ccc(C)cc1C1=C(Br)C(=O)N(CC(C)C)/C1=C\c1ccccc1Cl , what Activity was observed with Staphylococcus epidermidis?
Result: 31.7%
